TARGET_OF_ASSAY: aryl hydrocarbon receptor (AHR) (Homo sapiens, UniProt P35869)
Sequence (P35869 11-848): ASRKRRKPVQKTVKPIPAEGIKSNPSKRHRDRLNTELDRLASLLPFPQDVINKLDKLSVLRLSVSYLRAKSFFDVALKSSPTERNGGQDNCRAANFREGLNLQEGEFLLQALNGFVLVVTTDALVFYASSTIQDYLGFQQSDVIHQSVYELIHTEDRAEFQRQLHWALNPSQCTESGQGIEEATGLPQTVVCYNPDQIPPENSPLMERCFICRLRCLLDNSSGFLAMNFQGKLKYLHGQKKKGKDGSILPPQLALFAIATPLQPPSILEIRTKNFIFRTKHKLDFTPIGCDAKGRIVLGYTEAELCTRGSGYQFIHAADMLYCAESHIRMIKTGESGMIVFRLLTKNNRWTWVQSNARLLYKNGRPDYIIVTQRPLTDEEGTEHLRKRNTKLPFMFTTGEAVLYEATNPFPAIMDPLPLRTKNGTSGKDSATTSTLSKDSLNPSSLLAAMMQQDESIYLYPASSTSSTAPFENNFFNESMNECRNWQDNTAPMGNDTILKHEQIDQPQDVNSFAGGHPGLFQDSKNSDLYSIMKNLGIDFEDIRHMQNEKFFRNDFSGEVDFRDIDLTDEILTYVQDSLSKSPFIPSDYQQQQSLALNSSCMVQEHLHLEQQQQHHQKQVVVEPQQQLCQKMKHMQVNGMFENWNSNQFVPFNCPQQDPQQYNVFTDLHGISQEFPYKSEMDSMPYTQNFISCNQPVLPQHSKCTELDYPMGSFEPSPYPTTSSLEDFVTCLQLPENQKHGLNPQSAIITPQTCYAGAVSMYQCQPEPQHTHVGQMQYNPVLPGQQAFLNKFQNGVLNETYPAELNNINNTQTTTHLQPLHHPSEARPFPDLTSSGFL
TEST_DESCRIPTION: DRE-Luciferase reporter high-throughput screen (AHR antagonist, VAF347-activated)
READOUT: IC50

{"COMPOUND": "Cc1noc(C)c1C(=O)Nc1ccc2oc(-c3cc(F)ccc3Br)nc2c1", "TARGET_OF_ASSAY": "aryl hydrocarbon receptor (AHR) (Homo sapiens, UniProt P35869)", "EXPERIMENTAL_VALUE": "< 0.2 µM"}
{"COMPOUND": "COc1ccc(C(=O)Nc2nc3c(s2)CCCC3)cc1 [171A]", "TARGET_OF_ASSAY": "aryl hydrocarbon receptor (AHR) (Homo sapiens, UniProt P35869)", "EXPERIMENTAL_VALUE": "1 to 2 µM"}
{"COMPOUND": "COc1cccc(-c2ccc(SCc3cccnc3)nn2)c1 [89A]", "TARGET_OF_ASSAY": "aryl hydrocarbon receptor (AHR) (Homo sapiens, UniProt P35869)", "EXPERIMENTAL_VALUE": "> 2 µM"}
{"COMPOUND": "Cc1nn2cc(-c3ccc(-c4ccccc4)cc3)nc2s1", "TARGET_OF_ASSAY": "aryl hydrocarbon receptor (AHR) (Homo sapiens, UniProt P35869)", "EXPERIMENTAL_VALUE": "0.2 to 0.5 µM"}
{"COMPOUND": "Cc1ccc(NC(=O)CN(C)C(C)c2cccs2)c(F)c1 (stereo not drawn) [147A]", "TARGET_OF_ASSAY": "aryl hydrocarbon receptor (AHR) (Homo sapiens, UniProt P35869)", "EXPERIMENTAL_VALUE": "> 2 µM"}

Next up:
Value sought: IC50, system aryl hydrocarbon receptor (AHR) (Homo sapiens, UniProt P35869), item `Cc1cc2cc(Nc3nccc(C(F)(F)F)n3)ccc2[nH]1` . Result: 0.2 to 0.5 µM

Values from patent US20210220408A1
